- Tested System: T1, human FAP (Homo sapiens, UniProt Q12884)
- T1 sequence (Q12884 1-760): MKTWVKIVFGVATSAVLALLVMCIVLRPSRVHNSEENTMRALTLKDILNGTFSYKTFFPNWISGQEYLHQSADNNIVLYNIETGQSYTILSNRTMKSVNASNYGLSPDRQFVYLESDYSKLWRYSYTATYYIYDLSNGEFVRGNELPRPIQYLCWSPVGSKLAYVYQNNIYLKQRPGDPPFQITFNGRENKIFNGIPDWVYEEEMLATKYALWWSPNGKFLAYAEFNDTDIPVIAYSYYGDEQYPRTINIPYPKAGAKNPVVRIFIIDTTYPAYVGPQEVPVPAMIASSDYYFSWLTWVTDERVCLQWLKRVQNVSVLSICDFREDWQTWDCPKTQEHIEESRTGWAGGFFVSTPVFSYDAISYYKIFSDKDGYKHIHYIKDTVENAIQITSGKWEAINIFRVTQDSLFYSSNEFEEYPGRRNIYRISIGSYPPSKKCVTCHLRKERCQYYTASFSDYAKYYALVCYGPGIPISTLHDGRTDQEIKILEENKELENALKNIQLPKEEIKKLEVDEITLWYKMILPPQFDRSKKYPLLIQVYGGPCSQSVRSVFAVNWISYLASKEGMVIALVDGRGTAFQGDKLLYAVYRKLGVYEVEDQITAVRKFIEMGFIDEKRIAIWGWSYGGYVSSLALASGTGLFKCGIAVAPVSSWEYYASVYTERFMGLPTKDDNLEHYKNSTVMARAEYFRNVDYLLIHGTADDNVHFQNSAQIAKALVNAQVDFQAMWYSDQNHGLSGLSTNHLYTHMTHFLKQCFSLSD
- Assay Comment: BLI (Octet) binding kinetics pre- and post-TCO conjugation (Example 7, Table 17)
- Run Conditions: Pre conjugation (TCO)
Metric Name: kon (M⁻¹ s⁻¹)

Example entries begin here.
INSERT INTO measurements (molecule, metric_name, reading_unit, readout_value) VALUES
  ('VHH9: VHH, target FAP, SEQ ID NO 92 (protein) VHH: QVQLQESGGGLVQSGGSLRLSCVASGSISSINAMGWYRQAPGNKREWVAGITSGGSTNYADAVLGRFSIFRDNPKNTVYLQMNSLKPEDTAVYYCNTWPPSTFGSWGQGTQVTVSSAAAYPYDVPDYGSHHHHHH', 'kon', 'M⁻¹ s⁻¹', '3.98e+06'),
  ('VHH7: VHH, target FAP, SEQ ID NO 90 (protein) VHH: QVQLQESGGGLVQAGGSLRLSCTASGTFSGRNAMAWYRQAPGKRRELVAGIRSDDSTNYVDSVKGRFTISRDNAKNTVYLQMNSLRPEDTAVYYCNLWPPVIGAGFGSWGQGTQVTVSSAAAYPYDVPDYGSHHHHHH', 'kon', 'M⁻¹ s⁻¹', '2.4e+06'),
  ('VHH8: VHH, target FAP, SEQ ID NO 91 (protein) VHH: QVQLQESGGGTVQPGGSLRLSCAASGISVSIASMAWYRQAPGKQRELVAGIISGGSTNYADSVKGRFTISRDNAKKVVLLQMNSLKPEDTAVYYCNTYPPFVGPGATATWGQGTQVTVSSAAAYPYDVPDYGSHHHHHH', 'kon', 'M⁻¹ s⁻¹', '1.01e+06');

A. VHH6: VHH, target FAP, SEQ ID NO 89 (protein) VHH: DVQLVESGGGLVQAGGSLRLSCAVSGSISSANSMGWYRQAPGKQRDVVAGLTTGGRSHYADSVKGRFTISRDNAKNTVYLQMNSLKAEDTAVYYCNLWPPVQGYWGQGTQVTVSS
B. VHH1: VHH, target FAP, SEQ ID NO 4 (protein, VHH1) VHH: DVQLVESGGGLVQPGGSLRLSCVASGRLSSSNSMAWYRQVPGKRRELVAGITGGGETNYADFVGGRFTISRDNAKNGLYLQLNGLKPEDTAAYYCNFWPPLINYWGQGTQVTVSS
Req: Please tell me which of the two, A or B , has the higher reported kon value. The response must carry the label of the picked entry.
Resp: A

Cited source for all entries: patent US20250122304A1
